Test system: P. aeruginosa ATCC 27853
Assay: Broth microdilution assay, P. aeruginosa
Assay type: cell-based, Pseudomonas aeruginosa
Settings: 50 µM, 24 h, inhibition of growth, mean ± SD
Assay readout: Inhibitory effect (%) P. aeruginosa ATCC 27853
One number for each entry, in %.

Here is how some compounds turned out for Inhibitory effect (%) P. aeruginosa ATCC 27853.
Compound	Observed value
C=C(C)C1CCC2(COC(C)=O)CCC3(C)C(CCC4C5(C)CCC(=O)C(C)(C)C5CCC43C)C12 (stereo not shown)	4.7
CC(=O)OCC12CCC3(C(C)C)C1=C1C(CC4C5(C)CCC(OC(C)=O)C(C)(C)C5CCC4(C)C1(C)CC2)n1c(=O)n(-c2ccccc2)c(=O)n13 (stereo not shown)	1.3
CC(C)C12CCC3(COC(=O)C4CCCCC4)CCC4(C)C(=C31)C(CC1C3(C)CCC(OC(=O)C5CCCCC5)C(C)(C)C3CCC14C)n1c(=O)n(C(C)(C)C)c(=O)n12 (stereo not shown)	5.9

Report Inhibitory effect (%) P. aeruginosa ATCC 27853 for CC(=O)OCC12CCC3(C(C)C)C1=C1C(CC4C5(C)CCC(OC(C)=O)C(C)(C)C5CCC4(C)C1(C)CC2)n1c(=O)n(-c2ccc4c(c2)CCC4)c(=O)n13 (stereo not shown) please.
5.8

* * *

Test system: C. albicans ATCC 90028
Assay: Broth microdilution assay, C. albicans
Assay type: cell-based, Candida albicans
Conditions: 50 µM, 48 h at 35°C, inhibition of growth, mean ± SD
Assay readout: Inhibitory effect (%) C. albicans ATCC 90028
Numbers only, in %.

Compound	Unit text	Observed value
CC(=O)OCC12CCC3(C(C)C)C1=C1C(CC4C5(C)CCC(OC(C)=O)C(C)(C)C5CCC4(C)C1(C)CC2)n1c(=O)n(-c2ccccc2)c(=O)n13 (stereo not shown)	%	15.0
CC(C)C12CCC3(COC(=O)c4ccccc4)CCC4(C)C(=C31)C(CC1C3(C)CCC(OC(=O)c5ccccc5)C(C)(C)C3CCC14C)n1c(=O)n(-c3ccccc3)c(=O)n12 (stereo not shown)	%	-35.2

Working through the 2 compounds below one at a time, give Inhibitory effect (%) C. albicans ATCC 90028 for each.
1. CC(C)C12CCC3(COC(=O)c4ccccc4)CCC4(C)C(=C31)C(CC1C3(C)CCC(OC(=O)c5ccccc5)C(C)(C)C3CCC14C)n1c(=O)n(C)c(=O)n12 (stereo not shown)
2. C=C(C)C1CCC2(COC(C)=O)CCC3(C)C(CCC4C5(C)CCC(=O)C(C)(C)C5CCC43C)C12 (stereo not shown)

1: -48.0; 2: -13.9

Working through the 2 compounds below one at a time, give Inhibitory effect (%) C. albicans ATCC 90028 for each.
1. C=C(C)C1CCC2(C=O)CCC3(C)C(CCC4C5(C)CCC(=O)C(C)(C)C5CCC43C)C12 (stereo not shown)
2. CC(=O)OCC12CCC3(C(C)C)C1=C1C(CC4C5(C)CCC(OC(C)=O)C(C)(C)C5CCC4(C)C1(C)CC2)n1c(=O)n(-c2cccc(Cl)c2)c(=O)n13 (stereo not shown)

1: -18.7; 2: 4.8

* * *

Give Inhibitory effect (%) P. aeruginosa ATCC 27853 for every item shown.
System: P. aeruginosa ATCC 27853
Assay: Broth microdilution assay, P. aeruginosa
Type: cell-based, Pseudomonas aeruginosa
Conditions: 50 µM, 24 h, inhibition of growth, mean ± SD
Please state the value followed by its unit.

Here is how some compounds turned out for Inhibitory effect (%) P. aeruginosa ATCC 27853.
Compound	Observed value
COc1cccc(-n2c(=O)n3n(c2=O)C2(C(C)C)CCC4(COC(C)=O)CCC5(C)C(=C42)C3CC2C3(C)CCC(OC(C)=O)C(C)(C)C3CCC25C)c1 (stereo not shown)	0.6±2.5%
CCCCn1c(=O)n2n(c1=O)C1(C(C)C)CCC3(COC(C)=O)CCC4(C)C(=C31)C2CC1C2(C)CCC(OC(C)=O)C(C)(C)C2CCC14C (stereo not shown)	1.0±0.4%
C=C(C)C1CCC2(COS(C)(=O)=O)CCC3(C)C(CCC4C5(C)CCC(OC(C)=O)C(C)(C)C5CCC43C)C12 (stereo not shown)	6.5±0.9%
C=C(C)[C@@H]1CC[C@]2(COC(=O)c3cccnc3)CC[C@]3(C)[C@H](CC[C@@H]4[C@@]5(C)CC[C@H](O)C(C)(C)[C@@H]5CC[C@]43C)[C@@H]12	2.2±2.2%
CC(C)C12CCC3(CO)CCC4(C)C(=C31)C(CC1C3(C)CCC(O)C(C)(C)C3CCC14C)n1c(=O)n(-c3ccccc3)c(=O)n12 (stereo not shown)	3.3±1.1%
CC(C)C12CCC3(COC(=O)c4ccccc4)CCC4(C)C(=C31)C(CC1C3(C)CCC(OC(=O)c5ccccc5)C(C)(C)C3CCC14C)n1c(=O)n(C)c(=O)n12 (stereo not shown)	5.3±1.9%

Working through the 8 compounds below one at a time, give Inhibitory effect (%) P. aeruginosa ATCC 27853 for each.
1. CC(=O)OCC12CCC3(C(C)C)C1=C1C(CC4C5(C)CCC(OC(C)=O)C(C)(C)C5CCC4(C)C1(C)CC2)n1c(=O)n(-c2cccc(Cl)c2)c(=O)n13 (stereo not shown)
2. C=C(C)[C@@H]1CC[C@]2(C=NO)CC[C@]3(C)[C@H](CC[C@@H]4[C@@]5(C)CCC(=NO)C(C)(C)[C@@H]5CC[C@]43C)[C@@H]12
3. CC(C)C(=O)OCC12CCC3(C(C)C)C1=C1C(CC4C5(C)CCC(OC(=O)C(C)C)C(C)(C)C5CCC4(C)C1(C)CC2)n1c(=O)n(C)c(=O)n13 (stereo not shown)
4. C=C(C)C1CCC2(COC(C)=O)CCC3(C)C(CCC4C5(C)CCC(OC(C)=O)C(C)(C)C5CCC43C)C12 (stereo not shown)
5. C=C(C)[C@@H]1CC[C@]2(COC(=O)C3C(C=C(C)C)C3(C)C)CC[C@]3(C)[C@H](CC[C@@H]4[C@@]5(C)CC[C@H](O)C(C)(C)[C@@H]5CC[C@]43C)[C@@H]12 (stereo partly shown)
6. C=C(C)C1CCC2(CO)CCC3(C)C(CCC4C5(C)CCC(OC(C)=O)C(C)(C)C5CCC43C)C12 (stereo not shown)
7. C=C(C)[C@@H]1CC[C@]2(C#N)CC[C@]3(C)[C@H](CC[C@@H]4[C@@]5(C)CC[C@H](OC(C)=O)C(C)(C)[C@@H]5CC[C@]43C)[C@@H]12
8. C=C(C)[C@@H]1CC[C@]2(C(=O)OC)CC[C@]3(C)[C@H](CC[C@@H]4[C@@]5(C)CCC(=O)C(C)(C)[C@@H]5CC[C@]43C)[C@@H]12

1: 2.6±1.1%; 2: 1.4±1.1%; 3: 1.4±0.8%; 4: 3.9±0.6%; 5: 4.4±1.4%; 6: 1.8±1.2%; 7: 3.6±3.9%; 8: 2.3±0.3%

Working through the 2 compounds below one at a time, give Inhibitory effect (%) P. aeruginosa ATCC 27853 for each.
1. C=C(C)[C@@H]1CC[C@]2(COC(C)=O)CC[C@]3(C)[C@H](CC[C@@H]4[C@@]5(C)CC[C@H](O)C(C)(C)[C@@H]5CC[C@]43C)[C@@H]12
2. C=C(C)[C@@H]1CC[C@]2(C#N)CC[C@]3(C)[C@H](CC[C@@H]4[C@@]5(C)CCC(=NOC(C)=O)C(C)(C)[C@@H]5CC[C@]43C)[C@@H]12

1: -0.6±3.3%; 2: 5.7±1.7%

* * *

Give inhibition at 50 µM for every item shown.
Tested on: E. aerogenes ATCC 13048
Assay: Broth microdilution assay, E. aerogenes
Format: cell-based, Enterobacter aerogenes
Conditions: Klebsiella aerogenes, ATCC13048, 24 h, 50 µM, 24 h, inhibition of growth, mean ± SD; read-out: Inhibitory effect (%) E. aerogenes ATCC 13048
Give bare numbers, in %.

Compound	inhibition at 50 µM [%]
C=C(C)[C@@H]1CC[C@]2(CO)CC[C@]3(C)[C@H](CC[C@@H]4[C@@]5(C)CC[C@H](O)C(C)(C)[C@@H]5CC[C@]43C)[C@@H]12 [Compound 1, lup-20(29)-ene-3β, 28-diol]	5.7
C=C(C)[C@@H]1CC[C@]2(COC(=O)COc3cc(C(C)C)ccc3C)CC[C@]3(C)[C@H](CC[C@@H]4[C@@]5(C)CC[C@H](O)C(C)(C)[C@@H]5CC[C@]43C)[C@@H]12 [Compound 4, betulinyl 28-carboxymethoxycarvacrolate]	9.9
CC(=O)OCC12CCC3(C(C)C)C1=C1C(CC4C5(C)CCC(OC(C)=O)C(C)(C)C5CCC4(C)C1(C)CC2)n1c(=O)n(-c2cccc([N+](=O)[O-])c2)c(=O)n13 (stereo not drawn) [Compound 38]	19.3
CCn1c(=O)n2n(c1=O)C1(C(C)C)CCC3(COC(C)=O)CCC4(C)C(=C31)C2CC1C2(C)CCC(OC(C)=O)C(C)(C)C2CCC14C (stereo not drawn) [Compound 43]	18.5
C=C(C)[C@@H]1CC[C@]2(C(=O)O)CC[C@]3(C)[C@H](CC[C@@H]4[C@@]5(C)CC[C@H](O)C(C)(C)[C@@H]5CC[C@]43C)[C@@H]12 [Compound 19, betulinic acid]	38

Now for another entry.
Report inhibition at 50 µM for CC(=O)OCC12CCC3(C(C)C)C1=C1C(CC4C5(C)CCC(OC(C)=O)C(C)(C)C5CCC4(C)C1(C)CC2)n1c(=O)n(-c2ccc4c(c2)OCO4)c(=O)n13 (stereo not drawn) [Compound 35] please.
14.2

meta.source: paper PMC4102551
